- system.name: UniProt:P15538
- assay.name: Inhibition of hCYP11B1 in transfected V79 cells
- condition.label: hamster V79 cells expressing human CYP11B1; substrate 11-deoxycortisol 200 nM
- Procedure: Genes of human CYP11B1 and rat NADPH-P450 reductase were transfected into hamster V79 cells using a lentivirus vector, and stably-expressing cell lines were selected by taking advantages of the associated puromycin-resistance gene. […] Subsequently, the substrate and product(s) were quantified using LC-MS/MS or HPLC at 260 nm, and the IC50 values were calculated according to inhibitory percentage.
measured.metric: IC50 (nM)

(a) CN1CCN(S(=O)(=O)c2ccc(C#N)cc2)c2cncc(-c3ccc(C#N)cc3)c21 [N4]
(b) N#Cc1ccc(C(=O)N2CC(S(=O)(=O)N3CCSc4c(-c5ccc(C#N)cc5)cncc43)C2)cc1 [S70]
(c) N#CN1CC=C(c2cncc3c2OCCN3C(=O)C2CN(Cc3cccc(F)c3)C2)CC1 [O97]
*Q* Place the items in sequence of falling IC50. Give the labels in the order requested.
*A* c, b, a

(P) COc1ccc(S(=O)(=O)N2CC(C(=O)N3CCOc4c(-c5ccc(C#N)cc5)cncc43)C2)cc1 [O67]
(Q) O=S(=O)(c1ccc(Cl)s1)N1CCSc2c(-c3cc4cc(Cl)ccc4o3)cncc21 [S60]
(R) N#Cc1ccc(-c2cncc3c2OCCN3C(=O)N2CC3(CN(Cc4cccc(F)c4)C3)C2)cc1 [O73]
(S) COc1ccc(S(=O)(=O)n2ccc3c(-c4ccc(C#N)cc4)cncc32)cc1 [E9]
*Q* Would you mind ranking these compounds by ascending IC50? Respond with the label ranking, as requested.
*A* S, Q, P, R

(I) N#Cc1ccc(-c2cncc3c2OCCN3C(=O)C2CN(c3ccc(F)cc3)C2)cc1 [O85]
(II) COc1ccccc1C(=O)n1ccc2c(-c3ccc(C#N)cc3)cncc21 [E25]
*Q* Min IC50? I | II Use the label to indicate which entry you chose.
*A* I
(I: 64 nM, II: 98 nM)

----------
- system.name: human CYP11B2 (Homo sapiens, UniProt P19099)
- Sequence (P19099 25-503): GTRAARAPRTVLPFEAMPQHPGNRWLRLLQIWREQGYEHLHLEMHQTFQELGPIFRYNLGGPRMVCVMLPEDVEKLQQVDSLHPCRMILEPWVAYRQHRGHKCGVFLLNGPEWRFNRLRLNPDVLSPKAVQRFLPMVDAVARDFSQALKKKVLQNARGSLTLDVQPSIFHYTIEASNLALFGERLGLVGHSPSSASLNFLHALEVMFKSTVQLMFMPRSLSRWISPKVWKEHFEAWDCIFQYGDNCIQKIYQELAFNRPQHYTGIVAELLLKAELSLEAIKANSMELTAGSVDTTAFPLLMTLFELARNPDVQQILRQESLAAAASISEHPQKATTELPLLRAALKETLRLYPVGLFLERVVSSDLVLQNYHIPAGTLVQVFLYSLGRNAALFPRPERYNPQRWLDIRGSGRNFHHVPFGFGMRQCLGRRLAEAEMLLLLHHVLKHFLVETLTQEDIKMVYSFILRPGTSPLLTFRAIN
- assay.name: Inhibition of hCYP11B2 in transfected V79 cells
- condition.label: hamster V79 cells expressing human CYP11B2; substrate 11-deoxycorticosterone 200 nM
measured.metric: IC50 (nM)

Record excerpt, results attached:
[
  {
    "compound": "N#Cc1ccc(-c2cncc3c2ccn3C(=O)c2ccccc2I)cc1",
    "IC50 [nM]": 4
  },
  {
    "compound": "CCC(=O)N[C@@H]1CCCc2c(-c3ccc4c(c3)CCC(=O)N4C)cncc21 [Baxdrostat, reference compound]",
    "IC50 [nM]": 127
  },
  {
    "compound": "N#Cc1ccc(-c2cncc3c2ccn3C(=O)c2ccc(F)cc2)cc1",
    "IC50 [nM]": 0.1
  }
]

(P) N#Cc1ccc(-c2cncc3c2OCCN3C(=O)c2ccccc2F)cc1
(Q) N#Cc1ccc(-c2cncc3c2OCCN3S(=O)(=O)C2CC(c3cccc(C#N)c3)=NO2)cc1 (stereo not drawn)
*Q* I'm curious whether P or Q has the smaller IC50 number. Which is it? # reply format: chosen label
*A* Q
(Q: 0.4 nM, P: 26.1 nM)

----------
- system.name: human CYP11B1 (Homo sapiens)
- Sequence (P15538 25-503): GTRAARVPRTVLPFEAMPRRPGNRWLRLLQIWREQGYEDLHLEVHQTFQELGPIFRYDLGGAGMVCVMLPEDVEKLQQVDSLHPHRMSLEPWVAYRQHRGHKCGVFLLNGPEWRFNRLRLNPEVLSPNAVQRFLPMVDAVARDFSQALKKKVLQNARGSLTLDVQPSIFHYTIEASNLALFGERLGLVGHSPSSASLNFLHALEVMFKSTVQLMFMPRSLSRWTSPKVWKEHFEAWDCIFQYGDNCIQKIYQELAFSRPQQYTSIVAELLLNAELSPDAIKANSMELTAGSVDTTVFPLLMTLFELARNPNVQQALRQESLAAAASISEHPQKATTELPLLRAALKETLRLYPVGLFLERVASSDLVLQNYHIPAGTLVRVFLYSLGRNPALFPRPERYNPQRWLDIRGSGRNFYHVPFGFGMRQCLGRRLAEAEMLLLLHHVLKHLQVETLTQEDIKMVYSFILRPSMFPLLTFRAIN
- assay.name: Inhibition of hCYP11B1 in transfected V79 cells
- condition.label: hamster V79 cells expressing human CYP11B1; substrate 11-deoxycortisol 200 nM
measured.metric: IC50 (nM)

[
  {
    "query.smiles": "N#Cc1ccc(-c2cncc3c2SCCN3S(=O)(=O)C2CN(Cc3ccc(F)cc3)C2)cc1",
    "IC50, nM": 9.4
  }
]

(P) N#Cc1ccc(-c2cncc3c2CCN3S(=O)(=O)c2ccccc2)cc1
(Q) N#Cc1ccc(-c2cncc3c2SCCN3C(=O)c2ccc(F)cc2)cc1
(R) Cc1cccc(C(=O)N2CCc3c(-c4ccc(C#N)cc4)cncc32)c1
(S) N#Cc1ccc(-c2cncc3c2ccn3C(=O)c2ccccc2[N+](=O)[O-])cc1
(T) N#Cc1ccc(-c2cncc3c2OCCN3C(=O)[C@@H]2CCN(Cc3cccc(F)c3)C2)cc1
*Q* Please put the entries in order of rising IC50. Return value: ordered labels per request.
*A* P, S, R, T, Q

(1) N#CN1CCC(S(=O)(=O)N2CCSc3c(-c4cc5cc(Cl)ccc5o4)cncc32)CC1
(2) N#CC12CC(c3cncc4c3OCCN4C(=O)C3CN(Cc4cccc(F)c4)C3)(C1)C2
(3) N#Cc1ccc(-c2cncc3c2SCCN3S(=O)(=O)c2cccc(C#N)c2)cc1
(4) N#Cc1ccc(-c2cncc3c2CCN3C(=O)c2ccc([N+](=O)[O-])cc2)cc1
(5) N#Cc1ccc(-c2cncc3c2SCCN3S(=O)(=O)c2ccc(C#N)cc2)cc1
*Q* Ascending by IC50, please: list the molecules accordingly. Give your ranking as a list of the labels in the requested order.
*A* 3, 5, 4, 1, 2
(3: 3.1 nM, 5: 15 nM, 4: 472 nM, 1: 792 nM, 2: 4220 nM)

----------
- system.name: UniProtKB P15538
- assay.name: Inhibition of hCYP11B1 in transfected V79 cells
- condition.label: hamster V79 cells expressing human CYP11B1; substrate 11-deoxycortisol 200 nM
pIC50: −log10 of the molar value.
measured.metric: pIC50

Some solved cases for reference:
[
  {
    "query.smiles": "O=C(C1CN(Cc2cccc(F)c2)C1)N1CCOc2c(-c3cc4ccc(F)cc4[nH]3)cncc21",
    "data.value": 5.38
  },
  {
    "query.smiles": "O=C(c1ccc(F)cc1)n1ccc2c(-c3ccc4occc4c3)cncc21",
    "data.value": 6.17
  },
  {
    "query.smiles": "N#Cc1ccc(-c2cncc3c2ccn3S(=O)(=O)c2ccc(Cl)nc2)cc1",
    "data.value": 8.42
  },
  {
    "query.smiles": "COc1ccc(C(=O)N2CCSc3c(-c4cc5cc(C#N)ccc5o4)cncc32)cc1",
    "data.value": 5.93
  },
  {
    "query.smiles": "N#Cc1ccc(-c2cncc3c2CCN3C(=O)c2ccc(C(F)(F)F)cc2)cc1",
    "data.value": 6.95
  }
]

(P) O=C(c1ccccc1F)N1CCc2c(-c3cccc([N+](=O)[O-])c3)cncc21
(Q) COc1ccc(S(=O)(=O)N2CCSc3c(-c4ccc(Cl)cc4)cncc32)cc1
*Q* Kindly identify the item with the lower pIC50 figure among these two: P and Q // return label of chosen record
*A* P
(P: 6.42, Q: 8.74)

(A) CC(=O)Nc1nc(C)c(S(=O)(=O)N2CCSc3c(-c4cc5cc(Cl)ccc5o4)cncc32)s1
(B) N#Cc1ccc(-c2cncc3c2OCCN3C(=O)c2ccc(Cl)cc2)cc1
*Q* Kindly compare A with B and tell me which has the lower pIC50 figure. Label of pick, please.
*A* B
(B: 6.56, A: 7.18)

----------
- system.name: human CYP11B2 (Homo sapiens)
- assay.name: Inhibition of hCYP11B2 in transfected V79 cells
- condition.label: hamster V79 cells expressing human CYP11B2; substrate 11-deoxycorticosterone 200 nM
measured.metric: IC50 (nM)

(I) N#Cc1ccc(-c2cncc3c2OCCN3C(=O)[C@H]2CCN(Cc3cccc(F)c3)C2)cc1
(II) O=C(c1ccc(F)cc1)n1ccc2c(-c3ccc4occc4c3)cncc21
(III) Cc1ccc(S(=O)(=O)N2CC(C(=O)N3CCOc4c(-c5ccc(C#N)cc5)cncc43)C2)cc1
(IV) N#Cc1ccc(-c2cncc3c2SCCN3S(=O)(=O)c2cccc(C(F)(F)F)c2)cc1
*Q* Arrange by IC50, high to low. Response format: the labels, sorted as the prompt asks.
*A* II, I, III, IV
(II: 32 nM, I: 4.1 nM, III: 2.5 nM, IV: 1.05 nM)

----------
- system.name: human CYP11B2 (Homo sapiens)
- assay.name: Inhibition of hCYP11B2 in transfected V79 cells
- condition.label: hamster V79 cells expressing human CYP11B2; substrate 11-deoxycorticosterone 200 nM
- Experimental: Genes of human CYP11B2 and rat NADPH-P450 reductase were transfected into hamster V79 cells using a lentivirus vector, and stably-expressing cell lines were selected by taking advantages of the associated puromycin-resistance gene. […] Subsequently, the substrate and product(s) were quantified using LC-MS/MS or HPLC at 260 nm, and the IC50 values were calculated according to inhibitory percentage.
pIC50: −log10 of the molar value.
measured.metric: pIC50

[
  {
    "query.smiles": "Cn1cc(S(=O)(=O)N2CCSc3c(-c4cc5cc(Cl)ccc5o4)cncc32)cn1",
    "measured.metric": "pIC50",
    "data.value": 9.70
  }
]

(A) N#Cc1ccc(-c2cncc3c2ccn3S(=O)(=O)c2cccc(F)c2)cc1
(B) N#Cc1ccc(-c2cncc3c2ccn3S(=O)(=O)c2ccc3ccccc3c2)cc1
*Q* Task for the reader: decide whether A or B has the larger pIC50. Output the label that corresponds to your choice.
*A* B
(B: 10.00, A: 9.52)
